- SYSTEM: human IL-23R (Homo sapiens, UniProt Q5VWK5)
- Sequence (Q5VWK5 22-629): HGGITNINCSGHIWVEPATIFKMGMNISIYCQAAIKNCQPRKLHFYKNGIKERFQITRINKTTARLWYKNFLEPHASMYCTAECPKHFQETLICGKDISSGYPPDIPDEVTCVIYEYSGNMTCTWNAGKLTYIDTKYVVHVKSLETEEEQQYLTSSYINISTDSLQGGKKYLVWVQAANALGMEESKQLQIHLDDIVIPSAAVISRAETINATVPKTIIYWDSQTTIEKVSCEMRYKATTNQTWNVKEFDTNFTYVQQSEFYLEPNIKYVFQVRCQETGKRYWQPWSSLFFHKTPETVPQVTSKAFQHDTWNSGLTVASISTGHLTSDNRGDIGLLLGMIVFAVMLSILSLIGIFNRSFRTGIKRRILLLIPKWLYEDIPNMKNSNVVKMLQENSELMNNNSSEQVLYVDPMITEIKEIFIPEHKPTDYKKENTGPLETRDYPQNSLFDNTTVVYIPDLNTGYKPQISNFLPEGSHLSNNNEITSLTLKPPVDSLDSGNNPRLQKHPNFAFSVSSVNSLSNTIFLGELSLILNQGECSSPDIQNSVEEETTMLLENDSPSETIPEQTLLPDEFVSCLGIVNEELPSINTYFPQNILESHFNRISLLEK
- PROTOCOL DESCRIPTION: biochemical
- RUN CONDITIONS: read-out: % displacement (hIL-23R NIuc)
*1 amine or outer side, *2 acyl side, *3 side chain or, on linkers, in order; H or OH if unused. Where a SMILES comes first, the peptide text is derived from it. Bridges are numbered along the chain shown (N, C = ends). [ ]: non-standard residue; d: D form. X17 = O=C(C[C@@H](CCCN[*:3])N[*:2])[*:1]; 2Nal = N[C@@H](Cc1ccc2ccccc2c1)C(=O)O; AEF = NCCOc1ccc(C[C@H](N)C(=O)O)cc1; 3Pal = N[C@@H](Cc1cccnc1)C(=O)O; αMeL = CC(C)C[C@](C)(N)C(=O)O; Dab = NCC[C@H](N)C(=O)O
Measured Emax, listed per entry for reference.
Please reply with the bare figure in % and do not write the unit itself.

Answered examples (5):
CNC(=O)[C@H](Cc1cccnc1)NC(=O)[C@H](CCN)NC(=O)[C@@H]1CCC(=O)NC[C@@H]2NC(=O)CC[C@H](NC(=O)[C@H](CCC(N)=O)NC(=O)[C@H](Cc3c[nH]c4ccccc34)NC2=O)C(=O)N[C@@H](Cc2ccc(OCCN)cc2)C(=O)N[C@@H](Cc2ccc3ccccc3c2)C(=O)N[C@@](C)(CC(C)C)C(=O)N1 = 98
COc1ccc(C[C@@H]2NC(=O)[C@@H]3CCC(=O)N[C@@H](CCCCNC(=O)CC[C@@H](C(=O)N[C@@H](CCCCNC(=O)c4ccncc4)C(N)=O)NC(=O)[C@](C)(CC(C)C)NC(=O)[C@H](Cc4ccc5ccccc5c4)NC2=O)C(=O)N[C@@H]([C@@H](C)O)C(=O)N[C@@H](C(C)C)C(=O)N[C@@H](Cc2c[nH]c4ccccc24)C(=O)N[C@@H](CCC(N)=O)C(=O)N3)cc1 = 95
CC[C@H](C)[C@@H]1NC(=O)[C@@H]2CCCCNC(=O)CC[C@@H](C(=O)N[C@@H](Cc3cnc[nH]3)C(=O)N[C@@H](Cc3cccnc3)C(=O)NC)NC(=O)[C@](C)(CC(C)C)NC(=O)[C@H](Cc3ccc4ccccc4c3)NC(=O)[C@H](Cc3ccc(OCCN)cc3)NC(=O)[C@H](CCC(=O)N2)NC(=O)[C@H](CCC(N)=O)NC(=O)[C@H](Cc2c[nH]c3ccccc23)NC(=O)[C@H](C(C)C)NC1=O = 101
CNC(=O)[C@H](Cc1cccnc1)NC(=O)[C@H](CCN)NC(=O)[C@@H]1CCC(=O)NCCCC[C@@H]2NC(=O)CC[C@H](NC(=O)[C@H](CCC(N)=O)NC(=O)[C@H](Cc3c[nH]c4ccccc34)NC(=O)CCNC2=O)C(=O)N[C@@H](Cc2ccncc2)C(=O)N[C@@H](Cc2ccc3ccccc3c2)C(=O)N[C@@](C)(CC(C)C)C(=O)N1 = 97
CNC(=O)[C@H](Cc1cccnc1)NC(=O)[C@H](CCN)NC(=O)[C@@H]1CCC(=O)NCCCC[C@H]2C(=O)N[C@@H]([C@@H](C)O)C(=O)N[C@@H](Cc3c[nH]c4ccccc34)C(=O)N[C@@H](CCC(N)=O)C(=O)N[C@@H](Cc3cn2nn3)C(=O)N[C@@H](Cc2ccc(OCCN)cc2)C(=O)N[C@@H](Cc2ccc3ccccc3c2)C(=O)N[C@@](C)(CC(C)C)C(=O)N1 = 98

Turning now to a further compound:
Ask | # get_value(readout='Emax', item= CC(C)C[C@]1(C)NC(=O)[C@H](Cc2ccc3ccccc3c2)NC(=O)[C@H](Cc2ccc(OCCN)cc2)NC(=O)[C@@H]2CCC(=O)N[C@H](CCCNC(=O)CC[C@@H](C(=O)N[C@@H](CCN)C(=O)N[C@@H](Cc3cccnc3)C(N)=O)NC1=O)CC(=O)N[C@@H]([C@@H](C)O)C(=O)N[C@@H](Cc1c[nH]c3ccccc13)C(=O)N[C@@H](CCC(N)=O)C(=O)N2 [Compound 14] (TWQE[AEF][2Nal][αMeL]E[Dab][3Pal]-NH2; linker N-4-8 via X17) )
Reply | 101
